Assay: amyloid nucleation score (Sup35N fusion, yeast selection) (log enrichment); library NNK3; higher = more nucleation; inactive = no reads after selection;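 note: zero at mode of non-aggregating sequences after 7 days selection at 30°C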

>  <item sequence>
YRNELCYIQRRYLPYGRWTA

>  <amyloid nucleation score>
inactive

$$$$
>  <item sequence>
SLRDRKDRWGCQMLRRWVDF

>  <amyloid nucleation score>
inactive

$$$$
>  <item sequence>
LIASLRIWPRESMPR

>  <amyloid nucleation score>
inactive

$$$$
>  <item sequence>
SIFFNVVLFWGVWELTQGNR

>  <amyloid nucleation score>
0.803

$$$$
>  <item sequence>
FLNLHTVCC

>  <amyloid nucleation score>
inactive

$$$$
>  <item sequence>
FMIFDWVTYIKVTVKCWW

>  <amyloid nucleation score>
inactive

$$$$
>  <item sequence>
KRDLGTNAFTMNRRCYQDTL

>  <amyloid nucleation score>
inactive

$$$$
>  <item sequence>
DATRSCLWMYAIVYNACIGH

>  <amyloid nucleation score>
inactive

$$$$
>  <item sequence>
KLYIQCIYPDLVVINCDSWN

>  <amyloid nucleation score>
2.39

$$$$
>  <item sequence>
DSCKPCQKPTAIHVYMVEFP

>  <amyloid nucleation score>
inactive

$$$$
>  <item sequence>
LFYGSTCIGTDM

>  <amyloid nucleation score>
-1.07

$$$$
>  <item sequence>
WTRHGSEFVCYNSGHLWVFD

>  <amyloid nucleation score>
0.164

$$$$
>  <item sequence>
GGSCTDSVVIEGI

>  <amyloid nucleation score>
0.252

$$$$
>  <item sequence>
DRFSYFAIFPWYRMCYGMLE

>  <amyloid nucleation score>
inactive

$$$$
>  <item sequence>
YNMCLRDRVLFVIIDVRIFW

>  <amyloid nucleation score>
0.035

$$$$
>  <item sequence>
LSIYGDPAYCALFAYECLWL

>  <amyloid nucleation score>
1.93

$$$$
>  <item sequence>
IVFSGNLLVGNGFGVLKRKT

>  <amyloid nucleation score>
1.32

$$$$
>  <item sequence>
LCTSADYWSHKNRGRAYSRR

>  <amyloid nucleation score>
inactive

$$$$
>  <item sequence>
PTAFCNSSQYV

>  <amyloid nucleation score>
inactive

$$$$
>  <item sequence>
VISGNNVCSIRSDFRKIFFY

>  <amyloid nucleation score>
0.762

$$$$
>  <item sequence>
CATFFAKLQYNYH

>  <amyloid nucleation score>
1.28

$$$$
>  <item sequence>
DEFVCLEVDNLCMVCSEKM

>  <amyloid nucleation score>
-0.067

$$$$
>  <item sequence>
NCYFIQGWSSLMYSKGFNKC

>  <amyloid nucleation score>
inactive

$$$$
>  <item sequence>
QSPRRRMQSDIWS

>  <amyloid nucleation score>
inactive

$$$$
>  <item sequence>
SVTLGWSTRCCF

>  <amyloid nucleation score>
1.27

$$$$
>  <item sequence>
HKSINVIRDPGKIVFLTEVI

>  <amyloid nucleation score>
inactive

$$$$
>  <item sequence>
ANWVVVLLNRQASLGRFAYV

>  <amyloid nucleation score>
inactive

$$$$
>  <item sequence>
VLAGACDYPYGNVLV

>  <amyloid nucleation score>
inactive

$$$$
>  <item sequence>
LNCATFHYLTAVILMEYCRT

>  <amyloid nucleation score>
inactive

$$$$
>  <item sequence>
NYYNLYCLTVLQKRLQAGMQ

>  <amyloid nucleation score>
inactive

$$$$
>  <item sequence>
LIYRHLGYCYNRGCWLVSWH

>  <amyloid nucleation score>
inactive

$$$$
>  <item sequence>
ICELPNIYDVS

>  <amyloid nucleation score>
inactive

$$$$
>  <item sequence>
LVPVLNGVLSKLRSFNFHSG

>  <amyloid nucleation score>
inactive

$$$$
>  <item sequence>
IVSLSLVMSTDLC

>  <amyloid nucleation score>
0.834

$$$$
>  <item sequence>
VYSGSFGDSKLLMFWCSITV

>  <amyloid nucleation score>
inactive

$$$$
>  <item sequence>
QIFLCTGFCR

>  <amyloid nucleation score>
2.69

$$$$
